# System: L6
# assay.method.text: Cytotoxicity against rat L6 cells assessed as reduction in cell viability incubated for 70 hrs by resazurin staining based inverted microscopic analysis
# condition.info: L6, 70 h
pIC50: −log10 of the molar value.
Classification field. Basis: pIC50. Definitions: label 0: < 4; label 1: ≥ 4 and < 5; label 2: ≥ 5

Which bin should I file COC(=O)/C=C/c1cc(O)c2c(c1)[C@H](C(=O)OC)[C@@H](c1ccc(O)c(O)c1)O2 (racemic) under?
label 2

Which bin should I file COc1cc([C@H]2Oc3ccc(Br)cc3[C@@H]2CO)c(Br)cc1O (racemic) under?
label 1

Which bin should I file OC[C@H]1c2cc(-c3cccnc3F)ccc2O[C@@H]1c1ccc(O)cc1 (racemic) under?
label 1

Which bin should I file COc1cc([C@H]2Oc3c(OC)cc(/C=C/C(=O)NCCO)cc3[C@@H]2C(=O)NCCO)ccc1O (racemic) under?
label 0

Which bin should I file CCOC(=O)/C=C/c1cc(OC)c2c(c1)[C@H](C(=O)OCC)[C@@H](c1ccc(O)c(OC)c1)O2 (racemic) under?
label 2

Which bin should I file COc1ccc([C@H]2Oc3ccc(C=O)cc3[C@@H]2C)cc1 (racemic) under?
label 1

Which bin should I file OC[C@H]1c2ccccc2O[C@@H]1c1ccc(O)cc1 (racemic) under?
label 0

Which bin should I file COc1cc(Br)c([C@H]2Oc3ccc(Br)cc3[C@@H]2CO)cc1OC (racemic) under?
label 1

Which bin should I file CC(C)(C)CC(=O)/C=C/c1cc(O)c2c(c1)[C@H](C(=O)CC(C)(C)C)[C@@H](c1ccc(O)c(O)c1)O2 (racemic) under?
label 2

Which bin should I file COc1ccc([C@H]2Oc3ccccc3[C@@H]2COC(C)=O)cc1 (racemic) under?
label 1

Which bin should I file C=CCOC(=O)/C=C/c1cc(O)c2c(c1)[C@H](C(=O)OCC=C)[C@@H](c1ccc(O)c(O)c1)O2 (racemic) under?
label 2

Which bin should I file COc1cc([C@H]2Oc3ccc(Cl)cc3[C@@H]2C)cc(Cl)c1O (racemic) under?
label 1

Which bin should I file COc1ccc([C@H]2Oc3ccccc3[C@@H]2C)cc1 (racemic) under?
label 0

Which bin should I file COc1cc([C@H]2Oc3ccc(Br)cc3[C@@H]2CO)cc(Br)c1O (racemic) under?
label 1

Which bin should I file OC[C@H]1c2cc(-c3ccc(O)cc3)ccc2O[C@@H]1c1ccc(O)cc1 (racemic) under?
label 1

Which bin should I file C[C@H]1c2cc(Br)ccc2O[C@@H]1c1ccc(O)cc1 (racemic) under?
label 1

Which bin should I file CCCNC(=O)/C=C/c1cc(OC)c2c(c1)[C@H](C(=O)NCCC)[C@@H](c1ccc(O)c(OC)c1)O2 (racemic) under?
label 1

Which bin should I file COC(=O)/C=C/c1ccc2c(c1)[C@H](C(=O)OC)[C@@H](c1ccc(O)cc1)O2 (racemic) under?
label 1

---

So I've got a bunch of molecules here, and I need their pIC50 values.
# Tested on: L6
# assay.method.text: Cytotoxicity against rat L6 cells assessed as reduction in cell viability incubated for 70 hrs by resazurin staining based inverted microscopic analysis
# condition.info: L6, 70 h
Note on units: pIC50 is unitless, being -log10 of a concentration expressed in mol/L.

Name the recorded pIC50 of the molecule listed here: COc1cc([C@H]2Oc3c(OC)cc(/C=C/C(=O)NC(C)C)cc3[C@@H]2C(=O)NC(C)C)ccc1O (racemic)
4.11

Name the recorded pIC50 of the molecule listed here: CC(C)OC(=O)/C=C/c1cc(O)c2c(c1)[C@H](C(=O)OC(C)C)[C@@H](c1ccc(O)c(O)c1)O2 (racemic)
4.99

Name the recorded pIC50 of the molecule listed here: COc1cc([C@H]2Oc3ccccc3[C@@H]2C)ccc1O (racemic)
4.07

Name the recorded pIC50 of the molecule listed here: OC[C@H]1c2ccccc2O[C@@H]1c1cc(Br)c(O)c(Br)c1 (racemic)
3.96

Name the recorded pIC50 of the molecule listed here: COc1cc([C@H]2Oc3c(OC)cc(/C=C/C(=O)OC(C)(C)C)cc3[C@@H]2C(=O)OC(C)(C)C)ccc1O (racemic)
4.94

Name the recorded pIC50 of the molecule listed here: CC(C)OC(=O)/C=C/c1cc(O)c2c(c1)[C@@H](C(=O)OC(C)C)[C@H](c1ccc(O)c(O)c1)O2
4.97

Name the recorded pIC50 of the molecule listed here: CC(C)(C)OC(=O)/C=C/c1cc(O)c2c(c1)[C@H](C(=O)OC(C)(C)C)[C@@H](c1ccc(O)c(O)c1)O2 (racemic)
5.04

Name the recorded pIC50 of the molecule listed here: CCOC(=O)/C=C/c1cc(O)c2c(c1)[C@H](C(=O)OCC)[C@@H](c1ccc(O)c(O)c1)O2 (racemic)
5.00

Name the recorded pIC50 of the molecule listed here: CC(C)(C)OC(=O)/C=C/c1ccc2c(c1)[C@H](C(=O)OC(C)(C)C)[C@@H](c1ccc(O)cc1)O2 (racemic)
4.88

Data origin, for the record: ChEMBL document CHEMBL4765412
